Target: T1, Human v6-peptide (human, N-terminal biotin)
T1 construct: Bachem #4108947, 43 amino acids, synthetic; also called Hm v6-peptide; hm v6-peptide
T1 peptide: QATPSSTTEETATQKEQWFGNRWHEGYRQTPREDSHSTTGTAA
Experiment: SPR SCK, antibody immobilised, peptide injected
quantity.measured: koff (s⁻¹)
Answer format: numeric, s⁻¹ implied, no suffix.

>  <binder>
AL-MN114-132 IgG1 LALA (antibody, V domains shown, item 20 iii) gives heavy 77 / light 96 without naming the format) VH: EVQLLESGGGLVQPGGSLRLSCAASGFTFSSYAMSWVRQAPGKGLEWVSAISGGGSSTYYADSVKGRFTISRDNSKNTLYLQMNSLRAEDTAVYYCARHYYSDSDYRSSAAMDYWGQGTLVTVSS VL: DIQMTQSPSSLSASVGDRVTITCRASQSISSYLNWYQQKPGKAPKLLIYAASSLQSGVPSRFSGSGSGTDFTLTISSLQPEDFATYYCQQDLYLLTFGQGTKLEIK

>  <numeric.result>
0.013

$$$$

// next entry
## Input Param item = AL-MN114-465 IgG1 LALA IAHA (antibody, V domains shown, Human IgG1 LALA IAHA, kappa) VH: EVQLLESGGGLVQPGGSLRLSCAASGFSFGSYAMSWVRQAPGKGLEWVSAISAGGSSTFYADSVKGRFTISRDNSKNTLYLQMNSLRAEDTAVYYCARHYYSDSDYRSSAAMDYWGQGTLVTVSS VL: DIQMTQSPSSLSASVGDRVTITCRASQSISSYLNWYQQKPGKAPKLLIYTASSLQSGVPSRFSGSGSGTDFTLTISSLQPEDFATYYCQQDLYLLTFGQGTKLEIK ; retrieve measured koff.
## Output 0.0093
